For each record, write down the corresponding MIC E. coli ΔwaaD + vect..
system: E. coli ΔwaaD + vect.; assay: MIC assay, E. coli ΔwaaD + vect.; type: cell-based, Escherichia coli; conditions: Table 7
One number for each entry, in µM.

Known MIC E. coli ΔwaaD + vect. results, listed for orientation:
- Ac-YPMTARRYLEKWGLLR-NH2 [compound 56]: 400
- Ac-YPMNARRFLEKWGLLR-NH2 [compound 50]: 200
- Ac-YPMTARRFLAKWGLLR-NH2 [compound 57]: 100

State recorded MIC E. coli ΔwaaD + vect. for all listed substances.
1. Ac-YPMTFRRFLEKWGLLR-NH2 [compound 59]
2. Ac-GSSYPMTARRFLEKHGLLR-NH2 [compound 13]
3. Ac-YPMTARRFLEKWGL-NH2 [compound 44]
4. Ac-YPMSARRFLEKWGLLR-NH2 [compound 49]

1. 25
2. 800
3. 200
4. 100

Report MIC E. coli ΔwaaD + vect. on E. coli ΔwaaD + vect. for this entry: Ac-YPMTAQRFLEKWGLLR-NH2 [compound 54]
100

====

For each record, write down the corresponding MIC K. pneumoniae.
tested on: K. pneumoniae; assay type: cell-based, Klebsiella pneumoniae; conditions: Table 8

* Ac-YPMTMRRFLEKWGLLR-NH2 [compound 58] | 400 µM
* Ac-YPMTAQRFLEKWGLLR-NH2 [compound 54] | >800 µM
* Ac-YPMNARRFLEKWGLLR-NH2 [compound 50] | 800 µM

State recorded MIC K. pneumoniae for all listed substances.
1. Ac-RPMTFRRFLEKWGL-NH2 [compound 73]
2. Ac-YPMTLRRFLEKWGLLR-NH2 [compound 83]

["200 µM", "100.0 µM"]

Tell me its MIC K. pneumoniae given Ac-YPMTARRFFEKWGLLR-NH2 [compound 94] as the entry.
>400.0 µM

====

For each record, write down the corresponding MIC E. coli imp4213.
test system: E. coli imp4213; test: MIC assay, E. coli imp4213; format: cell-based, Escherichia coli; details: Table 7
Square brackets hold non-standard residues; d marks the D form. Peptide text beside a SMILES is read from it. aThr = C[C@H](O)[C@H](N)C(=O)O; NMeM = CN[C@@H](CCSC)C(=O)O; NMeA = CN[C@@H](C)C(=O)O
One number for each entry, in µM.

* CSCC[C@H](NC(=O)[C@@H]1CCCN1C(=O)[C@H](Cc1ccc(O)cc1)NC(C)=O)C(=O)N[C@H](C(=O)N[C@@H](C)C(=O)N[C@@H](CCCNC(=N)N)C(=O)N[C@@H](CCCNC(=N)N)C(=O)N[C@@H](Cc1ccccc1)C(=O)N[C@@H](CC(C)C)C(=O)N[C@@H](CCC(=O)O)C(=O)N[C@@H](CCCCN)C(=O)N[C@@H](Cc1c[nH]c2ccccc12)C(=O)NCC(=O)N[C@@H](CC(C)C)C(=O)N[C@@H](CC(C)C)C(=O)N[C@@H](CCCNC(=N)N)C(N)=O)[C@H](C)O [compound 48] (Ac-YPM[aThr]ARRFLEKWGLLR-NH2) | 17.5

Tell me its MIC E. coli imp4213 given CSCC[C@@H](C(=O)N[C@H](C(=O)N(C)[C@@H](C)C(=O)N[C@@H](CCCNC(=N)N)C(=O)N[C@@H](CCCNC(=N)N)C(=O)N[C@@H](Cc1ccccc1)C(=O)N[C@@H](CC(C)C)C(=O)N[C@@H](CCC(=O)O)C(=O)N[C@@H](CCCCN)C(=O)N[C@@H](Cc1c[nH]c2ccccc12)C(=O)NCC(=O)N[C@@H](CC(C)C)C(=O)N[C@@H](CC(C)C)C(=O)N[C@@H](CCCNC(=N)N)C(N)=O)[C@@H](C)O)N(C)C(=O)[C@@H]1CCCN1C(=O)[C@H](Cc1ccc(O)cc1)NC(C)=O [compound 65] (Ac-YP[NMeM]T[NMeA]RRFLEKWGLLR-NH2) as the entry.
12.5

====

test: Biolayer interferometry: captured biotinylated LAB peptides binding to LPS (KDO2-lipid A); conditions: LPS (KDO2-lipid A); biotinylated peptide on SA biosensor, 25° C.; estimated from equilibrium responses
For each record, write down the corresponding Kd.

• Ac-SYPMTARRFLEKWGLLR-NH2 [SEQ ID NO: 68, SYPMTARRFLEKWGLLR] = ~55 µM

Now let's try a different one.
Tell me its Kd given GSSYPMTARRFLEKHGLLD [SEQ ID NO: 1] as the entry.
~75 µM

====

For each record, write down the corresponding MIC E. coli ΔwaaD + EDTA.
tested on: E. coli ΔwaaD; assay: MIC assay, E. coli ΔwaaD; format: cell-based, Escherichia coli; settings: Table 7; + EDTA
Numbers only, in µM.

Known MIC E. coli ΔwaaD + EDTA results, listed for orientation:
• Ac-GSSYPMTARRFLEKHGLLR-NH2 [compound 13] = 200
• Ac-YPMTARRFLEKHGL-NH2 [compound 12] = 400

Now let's try a different one.
Tell me its MIC E. coli ΔwaaD + EDTA given Ac-GSSYPMTARRFLEKHGL-NH2 [compound 8] as the entry.
800

====

For each record, write down the corresponding MIC K. pneumoniae.
test system: K. pneumoniae; format: cell-based, Klebsiella pneumoniae

Known MIC K. pneumoniae results, listed for orientation:
- Ac-RPMTARRWLAKRGL-NH2 [compound 201]: >400.0 µM
- Ac-RPMTSRRWLAKRGL-NH2 [compound 214]: >400.0 µM
- Ac-RPMTWRRFLAKYGL-NH2 [compound 200]: 200.0 µM

Now let's try a different one.
Tell me its MIC K. pneumoniae given Ac-RPMTWRRFLAKRGL-NH2 [compound 203] as the entry.
>400.0 µM

====

test system: E. coli ΔwaaD MCR-1; test: MIC assay, E. coli ΔwaaD MCR-1; assay type: cell-based, Escherichia coli; details: Table 7
Square brackets hold non-standard residues; d marks the D form. Peptide text beside a SMILES is read from it. NMeM = CN[C@@H](CCSC)C(=O)O; hSer = N[C@@H](CCO)C(=O)O; NMeA = CN[C@@H](C)C(=O)O; Nle = CCCC[C@H](N)C(=O)O; Dap = NC[C@H](N)C(=O)O
For each record, write down the corresponding MIC E coli ΔwaaD − MCR1.
Give bare numbers, in µM.

Known MIC E coli ΔwaaD − MCR1 results, listed for orientation:
• CSCC[C@@H](C(=O)N[C@H](C(=O)N(C)[C@@H](C)C(=O)N[C@@H](CCCNC(=N)N)C(=O)N[C@@H](CCCNC(=N)N)C(=O)N[C@@H](Cc1ccccc1)C(=O)N[C@@H](CC(C)C)C(=O)N[C@@H](CCC(=O)O)C(=O)N[C@@H](CCCCN)C(=O)N[C@@H](Cc1c[nH]c2ccccc12)C(=O)NCC(=O)N[C@@H](CC(C)C)C(=O)N[C@@H](CC(C)C)C(=O)N[C@@H](CCCNC(=N)N)C(N)=O)[C@@H](C)O)N(C)C(=O)[C@@H]1CCCN1C(=O)[C@H](Cc1ccc(O)cc1)NC(C)=O [compound 65] (Ac-YP[NMeM]T[NMeA]RRFLEKWGLLR-NH2) = 100
• CSCC[C@H](NC(=O)[C@@H]1CCCN1C(=O)[C@H](Cc1ccc(O)cc1)NC(C)=O)C(=O)N[C@@H](CCO)C(=O)N[C@@H](C)C(=O)N[C@@H](CCCNC(=N)N)C(=O)N[C@@H](CCCNC(=N)N)C(=O)N[C@@H](Cc1ccccc1)C(=O)N[C@@H](CC(C)C)C(=O)N[C@@H](CCC(=O)O)C(=O)N[C@@H](CCCCN)C(=O)N[C@@H](Cc1c[nH]c2ccccc12)C(=O)NCC(=O)N[C@@H](CC(C)C)C(=O)N[C@@H](CC(C)C)C(=O)N[C@@H](CCCNC(=N)N)C(N)=O [compound 63] (Ac-YPM[hSer]ARRFLEKWGLLR-NH2) = 200
• CCCC[C@H](NC(=O)[C@@H]1CCCN1C(=O)[C@H](Cc1ccc(O)cc1)NC(C)=O)C(=O)N[C@H](C(=O)N[C@@H](C)C(=O)N[C@@H](CCCNC(=N)N)C(=O)N[C@@H](CCCNC(=N)N)C(=O)N[C@@H](Cc1ccccc1)C(=O)N[C@@H](CC(C)C)C(=O)N[C@@H](CCC(=O)O)C(=O)N[C@@H](CCCCN)C(=O)N[C@@H](Cc1c[nH]c2ccccc12)C(=O)NCC(=O)N[C@@H](CC(C)C)C(=O)N[C@@H](CC(C)C)C(=O)N[C@@H](CCCNC(=N)N)C(N)=O)[C@@H](C)O [compound 62] (Ac-YP[Nle]TARRFLEKWGLLR-NH2) = 200

Now let's try a different one.
Tell me its MIC E coli ΔwaaD − MCR1 given CSCC[C@H](NC(=O)[C@@H]1CCCN1C(=O)[C@H](Cc1ccc(O)cc1)NC(C)=O)C(=O)N[C@@H](CN)C(=O)N[C@@H](C)C(=O)N[C@@H](CCCNC(=N)N)C(=O)N[C@@H](CCCNC(=N)N)C(=O)N[C@@H](Cc1ccccc1)C(=O)N[C@@H](CC(C)C)C(=O)N[C@@H](CCC(=O)O)C(=O)N[C@@H](CCCCN)C(=O)N[C@@H](Cc1c[nH]c2ccccc12)C(=O)NCC(=O)N[C@@H](CC(C)C)C(=O)N[C@@H](CC(C)C)C(=O)N[C@@H](CCCNC(=N)N)C(N)=O [compound 51] (Ac-YPM[Dap]ARRFLEKWGLLR-NH2) as the entry.
200
